system: S. cerevisiae SKN7-toxicity growth rescue, plate reader; assay: Yeast SKN7 toxicity growth rescue counterscreen, Saccharomyces cerevisiae, plate reader, dose confirmatory (AID 624258);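 note: growth read after three days of incubation at 30 °C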
Property label: AC40

Look at each compound and report its AC40.
1. O=c1c(O)cccc2cc(O)c(O)c(O)c12
2. COC(=O)c1ccc(SC2CCCCC2)c([N+](=O)[O-])c1

[out]
2270 nM
1470 nM

----------
test system: S. cerevisiae SKN7-toxicity growth rescue, plate reader; assay: Yeast SKN7 toxicity growth rescue counterscreen, Saccharomyces cerevisiae, plate reader, dose confirmatory (AID 624258); call rule not given here;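 note: growth read after three days of incubation at 30 °C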
Form entry, call: pick from true (1) for active, false (0) for inactive

Illustrative cases are given below, each with its answer.
Cc1ccc(C)c(NS(=O)(=O)c2cc(C(=O)N3CCc4ccccc4C3)ccc2Cl)c1: true (1)
CCOC(=O)c1ccc(N2C(=O)CC(N(C)CCc3ccc(OC)c(OC)c3)C2=O)cc1 (stereo not drawn): true (1)
Cc1ccccc1NC(=O)CSc1ccc(-c2ccccn2)nn1: true (1)
CCN=c1scc(C)n1/N=C/c1ccc(O)c(O)c1O: true (1)

[in] Hi, do you know how Oc1ccc(Cl)cc1CNc1cccc2cccnc12 came out in this test?
[out] true (1)

[in] Hi, do you know how COc1cc(OC)cc(N2C(=O)CC(N3CCC(C(=O)N4CCCCC4)CC3)C2=O)c1 (stereo not drawn) came out in this test?
[out] true (1)
